The origin of these recorded values is the supplement of paper PMC6757056.

Please provide measured normalized RNA/DNA level without ligand (log10) for the entries that follow.
B1: library; a variant is named by its letters at N, in order (parent)
chain: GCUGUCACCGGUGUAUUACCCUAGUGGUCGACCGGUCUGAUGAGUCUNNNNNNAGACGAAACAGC

Variants of: B1
Experiment: normalized RNA/DNA level without ligand (relative to sTRSVctl = 100) (log10 (% of sTRSVctl)); ligand: hypoxanthine (xanthine aptamer); higher = less ribozyme self-cleavage, higher mRNA level
Conditions: HEK293T, reporter: mCherry (pCS4076), ligand present: no
Numbers only.

# batch: return normalized RNA/DNA level without ligand (log10) for each of the 5 variants below
1. CUCGUU
2. AGAACA
3. AUUUUG
4. CGUAAG
5. CUGGUU

1: 2.03; 2: 1.8; 3: 1.59; 4: 1.76; 5: 1.86
